target under test: human MyD88 (human) (UniProt Q99836)
experiment description: P3 phage display panning on plate-immobilised MyD88, after round 4, NGS
property measured: Population (%)

Example cases with answers are listed next.
[[record]]
binder = "YAFTGHLHRYLVQRGV"
observed_measurement = 3.91

[[record]]
binder = "FLSYRALEKRFGPIGQ"
observed_measurement = 0.96


(1) NQWRNALTAAANLSGW
(2) RKGDLISDELLIAIEE
(Q) Higher Population: 1 or 2 ? Write down the label attached to your selection.
(A) 1

# credit: patent EP4613859A1
